Test: Partition coefficient (logP)
Format: physicochemical
Settings: octanol/water
One threshold, -0.9, splits the recorded logP values: lower ones are met, equal or higher ones are not met.

# example entries with known answers
> print(dat)
                           cpd.smiles  assigned.category
1    O=C(O)[C@H]1CSC(c2ccc(O)cc2O)=N1                met
2  C[C@]1(C(=O)O)CSC(c2ccc(O)cc2O)=N1                met

Q: For this molecule, is logP lower than -0.9? COc1ccc(C2=N[C@@](C)(C(=O)O)CS2)c(O)c1
A: not met
